# purified human zDHHC2 (Homo sapiens, UniProt Q9UIJ5): IC50 values follow
# Sequence (Q9UIJ5 whole entry): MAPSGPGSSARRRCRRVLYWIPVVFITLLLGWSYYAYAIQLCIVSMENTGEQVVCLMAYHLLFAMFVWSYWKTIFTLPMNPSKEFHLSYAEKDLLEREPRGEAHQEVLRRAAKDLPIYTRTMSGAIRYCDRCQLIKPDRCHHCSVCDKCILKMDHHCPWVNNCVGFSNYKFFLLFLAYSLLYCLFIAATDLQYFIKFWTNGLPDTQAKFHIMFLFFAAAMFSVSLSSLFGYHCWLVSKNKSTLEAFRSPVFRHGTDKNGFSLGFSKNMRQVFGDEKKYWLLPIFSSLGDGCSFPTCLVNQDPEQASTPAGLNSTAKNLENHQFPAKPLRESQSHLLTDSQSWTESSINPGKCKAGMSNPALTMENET
# value in µM; strip the unit string

# compound, IC50 (µM)
records = [
    ("CCCCCCCOc1ccc(C(=O)Nc2cccc3c2OC(c2nnn[nH]2)CN3)cc1 (centres unmarked)", 4.7),
]

// next entry
Simply: O=C(Nc1cccc2c1OC(c1nnn[nH]1)CN2)c1ccc(OCCCCc2ccccc2)cc1 (centres unmarked) , purified human zDHHC2 (Homo sapiens, UniProt Q9UIJ5), IC50 = 1.3
